# targetOfAssay: HLA A*3201 (Homo sapiens, UniProt P04439, A270S/D101S/D185E/E176V/E277Q/F133L/G103R/G107R/G231S/H175R/I121M/I218V/I322F/K168Q/L105A/L300P/L318F/M331R/P208A/P217A/Q94H/R106L/R138Q/S129P/T104I/T323A/T345S/V100E/V321M/V358M)
# procedureText: biochemical
Where a SMILES comes first, the peptide text is derived from it.
Mark 1 for IC50 under 20 nM, 0 if at or over.

>>> classification("CC(C)C[C@H](NC(=O)[C@H](CO)NC(=O)[C@@H](N)CCCCN)C(=O)N[C@@H](CCCCN)C(=O)N[C@@H](CCCCN)C(=O)N[C@H](C(=O)N[C@@H](Cc1ccc(O)cc1)C(=O)N[C@H](C(=O)N[C@@H](Cc1ccccc1)C(=O)O)[C@@H](C)O)C(C)C [3102.0442] (H-KSLKKVYTF-OH)")
1
>>> classification("CC[C@H](C)[C@H](NC(=O)[C@@H](NC(=O)[C@H](Cc1ccc(O)cc1)NC(=O)[C@H](CC(C)C)NC(=O)[C@@H](N)CCCCN)[C@@H](C)O)C(=O)N[C@H](C(=O)N[C@@H](CO)C(=O)N[C@H](C(=O)N[C@@H](CC(C)C)C(=O)O)[C@@H](C)O)C(C)C [3102.0508] (H-KLYTIVSTL-OH)")
1
>>> classification("CC[C@H](C)[C@H](NC(=O)[C@@H](NC(=O)[C@@H](NC(=O)[C@H](Cc1c[nH]cn1)NC(=O)[C@H](CC(C)C)NC(=O)[C@H](CCSC)NC(=O)[C@H](CC(N)=O)NC(=O)[C@H](CCC(N)=O)NC(=O)[C@@H](N)CCCCN)C(C)C)[C@@H](C)CC)C(=O)O [3102.0329] (H-KQNMLHVII-OH)")
1
>>> classification("CC[C@H](C)[C@H](NC(=O)[C@H](CCCCN)NC(=O)CNC(=O)[C@H](CC(N)=O)NC(=O)[C@@H](NC(=O)[C@@H](N)CCSC)[C@@H](C)O)C(=O)N[C@@H](CC(N)=O)C(=O)N[C@@H](CO)C(=O)N[C@@H](CC(C)C)C(=O)O [3102.0386] (H-MTNGKINSL-OH)")
0
>>> classification("CC[C@H](C)[C@H](NC(=O)[C@H](CC(N)=O)NC(=O)[C@H](CC(C)C)NC(=O)[C@@H](NC(=O)[C@@H](N)C(C)C)[C@@H](C)O)C(=O)N[C@@H](CO)C(=O)N[C@@H](CO)C(=O)N[C@@H](CCCCN)C(=O)N[C@@H](Cc1ccccc1)C(=O)O [3102.0324] (H-VTLNISSKF-OH)")
1
>>> classification("CC[C@H](C)[C@H](N)C(=O)N[C@H](C(=O)N[C@@H](CCSC)C(=O)N[C@H](C(=O)N[C@@H](CC(N)=O)C(=O)N[C@@H](CO)C(=O)N[C@@H](CC(C)C)C(=O)N[C@H](C(=O)N[C@@H](Cc1ccc(O)cc1)C(=O)O)[C@@H](C)O)C(C)C)[C@@H](C)O [3102.0363] (H-ITMVNSLTY-OH)")
0
>>> classification("CC[C@H](C)[C@H](N)C(=O)N[C@H](C(=O)N[C@H](C(=O)N1CCC[C@H]1C(=O)N[C@@H](CC(C)C)C(=O)N[C@@H](CO)C(=O)N[C@H](C(=O)N[C@@H](CO)C(=O)N[C@H](C(=O)O)[C@@H](C)CC)C(C)C)[C@@H](C)CC)[C@@H](C)CC [3102.0502] (H-IIIPLSVSI-OH)")
0

---

# targetOfAssay: HLA B*1501 (Homo sapiens, UniProt P01889, A329T/A93T/A95T/C349S/D201E/D98Y/E187L/E204Q/E69M/E70A/K202T/N87E/Q94N/R155S/R180W/S121R/S35A/S48A/V306I/V36M/Y140S/Y91S)
# procedureText: biochemical
Where a SMILES comes first, the peptide text is derived from it.
Measured IC50 values are reported for all entries that follow.
outcomeMeasure: IC50 (nM)

>>> experimentalresult("CC(C)C[C@H](NC(=O)[C@H](CC(C)C)NC(=O)[C@@H](N)CCCCN)C(=O)N[C@@H](CO)C(=O)N[C@@H](Cc1c[nH]cn1)C(=O)N[C@@H](Cc1ccccc1)C(=O)N[C@@H](Cc1ccc(O)cc1)C(=O)N1CCC[C@H]1C(=O)N[C@@H](C)C(=O)O [3102.0665] (H-KLLSHFYPA-OH)")
39
>>> experimentalresult("CC[C@H](C)[C@H](N)C(=O)N[C@@H](C)C(=O)N[C@@H](CO)C(=O)N[C@H](C(=O)N[C@@H](CC(C)C)C(=O)N[C@H](C(=O)N[C@H](C(=O)N[C@H](C(=O)N[C@H](C(=O)O)[C@@H](C)CC)[C@@H](C)O)C(C)C)[C@@H](C)CC)[C@@H](C)O [3102.0358] (H-IASTLIVTI-OH)")
156
>>> experimentalresult("CSCC[C@H](NC(=O)[C@@H](N)Cc1c[nH]cn1)C(=O)N[C@@H](C)C(=O)N[C@@H](Cc1ccc(O)cc1)C(=O)N[C@@H](CO)C(=O)N[C@@H](Cc1ccccc1)C(=O)N[C@@H](CCC(N)=O)C(=O)N[C@H](C(=O)N[C@@H](Cc1ccccc1)C(=O)O)[C@@H](C)O [3102.1331] (H-HMAYSFQTF-OH)")
0.25

---

Measured log10 IC50 values are reported for all entries that follow.
# targetOfAssay: HLA B*1501 (Homo sapiens, UniProt P01889, A329T/A93T/A95T/C349S/D201E/D98Y/E187L/E204Q/E69M/E70A/K202T/N87E/Q94N/R155S/R180W/S121R/S35A/S48A/V306I/V36M/Y140S/Y91S)
# procedureText: biochemical
Where a SMILES comes first, the peptide text is derived from it.
outcomeMeasure: log10 IC50 (log10 of the value in nM)

>>> experimentalresult("CC[C@H](C)[C@H](NC(=O)[C@@H](NC(=O)CN)[C@@H](C)O)C(=O)N[C@@H](CCSC)C(=O)N[C@H](C(=O)N[C@@H](CO)C(=O)N[C@@H](CCC(=O)O)C(=O)N[C@@H](Cc1c[nH]cn1)C(=O)N[C@@H](Cc1ccccc1)C(=O)O)C(C)C [3102.1012] (H-GTIMVSEHF-OH)")
1.76
>>> experimentalresult("CC(C)C[C@H](NC(=O)[C@@H](N)CC(C)C)C(=O)N[C@@H](CO)C(=O)N[C@@H](CCCNC(=N)N)C(=O)N[C@@H](Cc1ccc(O)cc1)C(=O)N[C@@H](CC(=O)O)C(=O)N[C@@H](CCC(=O)O)C(=O)N[C@@H](Cc1c[nH]cn1)C(=O)N[C@@H](Cc1ccccc1)C(=O)O [3102.0976] (H-LLSRYDEHF-OH)")
1.73
>>> experimentalresult("CC[C@H](C)[C@H](NC(=O)[C@H](CCC(N)=O)NC(=O)[C@H](CCCNC(=N)N)NC(=O)[C@H](CC(C)C)NC(=O)[C@@H](N)CCCCN)C(=O)N[C@H](C(=O)N[C@@H](C)C(=O)N[C@@H](Cc1ccc(O)cc1)C(=O)N[C@@H](Cc1ccccc1)C(=O)O)C(C)C [3102.0815] (H-KLRQIVAYF-OH)")
0.88
>>> experimentalresult("CC(C)C[C@H](NC(=O)[C@H](C)N)C(=O)N[C@@H](CC(C)C)C(=O)N[C@@H](CCC(=O)O)C(=O)N[C@@H](CC(C)C)C(=O)N[C@@H](Cc1ccccc1)C(=O)N[C@@H](CC(N)=O)C(=O)N[C@@H](C)C(=O)N[C@@H](Cc1ccccc1)C(=O)O [3102.0961] (H-ALLELFNAF-OH)")
0.40
>>> experimentalresult("CC[C@H](C)[C@H](NC(=O)[C@H](Cc1ccc(O)cc1)NC(=O)[C@@H](NC(=O)[C@H](CC(N)=O)NC(=O)[C@H](CCC(=O)O)NC(=O)[C@@H](N)CCSC)C(C)C)C(=O)N[C@@H](CO)C(=O)N[C@@H](CO)C(=O)N[C@@H](Cc1ccc(O)cc1)C(=O)O [3102.1042] (H-MENVYISSY-OH)")
0.30
>>> experimentalresult("CC[C@H](C)[C@H](NC(=O)[C@H](CCSC)NC(=O)[C@@H](N)CCC(=O)O)C(=O)N[C@@H](CC(C)C)C(=O)N[C@@H](CO)C(=O)N[C@H](C(=O)N[C@@H](CO)C(=O)N[C@@H](CO)C(=O)N[C@@H](CCSC)C(=O)O)[C@@H](C)O [3102.0806] (H-EMILSTSSM-OH)")
0.18
>>> experimentalresult("CC[C@H](C)[C@H](NC(=O)CNC(=O)[C@@H](N)CO)C(=O)NCC(=O)N[C@H](C(=O)N[C@@H](Cc1ccccc1)C(=O)N[C@@H](CC(C)C)C(=O)N[C@@H](Cc1c[nH]cn1)C(=O)N[C@@H](Cc1ccc(O)cc1)C(=O)O)[C@@H](C)O [3102.0852] (H-SGIGTFLHY-OH)")
1.36
